Known IC50 of a selection of molecules
TESTED_TARGET: hDGAT2 (Homo sapiens (Human), UniProt Q96PD7)
Sequence (Q96PD7 whole entry): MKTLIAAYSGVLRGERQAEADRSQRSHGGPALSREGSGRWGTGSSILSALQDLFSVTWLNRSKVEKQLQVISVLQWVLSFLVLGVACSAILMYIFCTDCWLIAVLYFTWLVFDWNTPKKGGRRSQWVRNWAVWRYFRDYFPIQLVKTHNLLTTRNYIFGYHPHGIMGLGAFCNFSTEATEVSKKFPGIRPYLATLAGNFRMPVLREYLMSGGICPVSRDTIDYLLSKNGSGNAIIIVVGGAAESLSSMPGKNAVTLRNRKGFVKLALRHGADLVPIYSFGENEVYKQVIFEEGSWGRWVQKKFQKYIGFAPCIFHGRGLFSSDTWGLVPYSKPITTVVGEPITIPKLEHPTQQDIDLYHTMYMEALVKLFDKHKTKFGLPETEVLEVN
METHOD_SUMMARY: In vitro DGAT2 assay, hDGAT2 membrane fraction, [14C]decanoyl-CoA scintillation readout
Type: biochemical
TEST_SETTINGS: geometric mean; FLAG-hDGAT2 membrane fraction; 2 h preincubation; read-out: IC50 for inhibition of DGAT2
ENDPOINT_NAME: IC50

[[record]]
compound_smiles = "CCOc1ccccc1O[C@@H]1CCCN(c2ncc(C(=O)N[C@H]3CCc4ccccc43)cn2)C1"
recorded_value = "1.5 nM"

[[record]]
compound_smiles = "CCOc1ccccc1O[C@@H]1CCCN(c2ncc(C(=O)NCc3ccnc(C(=O)O)c3)cc2F)C1"
recorded_value = "9.7 nM"

[[record]]
compound_smiles = "CCOc1ccccc1O[C@@H]1CCCN(c2ncc(C(=O)NC3CCC3)cn2)C1"
recorded_value = "10.7 nM"

[[record]]
compound_smiles = "CCOc1ccccc1O[C@@H]1CCCN(c2ncc(C(=O)NCc3cc(C(=O)O)ccc3C)cn2)C1"
recorded_value = "38.1 nM"

[[record]]
compound_smiles = "CCOc1ccccc1O[C@@H]1CCCN(c2ncc(C(=O)N3Cc4ccccc4C3)cn2)C1"
recorded_value = "1.4 nM"

[[record]]
compound_smiles = "CCOc1ccccc1O[C@@H]1CCCN(c2ncc(C(=O)NCc3ccccc3CC(=O)O)cn2)C1"
recorded_value = "182 nM"

[[record]]
compound_smiles = "CCOc1ccccc1O[C@@H]1CCCN(c2ncc(C(=O)N[C@H]3CCC[C@H]3C(=O)O)cn2)C1"
recorded_value = "222 nM"

[[record]]
compound_smiles = "CCOc1ccccc1O[C@@H]1CCCN(c2ncc(C(=O)N[C@H](C)c3cccc(C(=O)O)c3)cn2)C1"
recorded_value = "88.4 nM"

[[record]]
compound_smiles = "CCOc1ccccc1O[C@@H]1CCCN(c2ncc(C(=O)NCc3cccc(C(=O)O)c3OC)cn2)C1"
recorded_value = "76.6 nM"

[[record]]
compound_smiles = "CCOc1ccccc1O[C@@H]1CCCN(c2ncc(C(=O)N[C@@H]3CNC(=O)C3)cn2)C1"
recorded_value = "122 nM"

[[record]]
compound_smiles = "CCOc1ccccc1O[C@@H]1CCCN(c2ncc(C(=O)NCC3CC3)cn2)C1"
recorded_value = "18.6 nM"

[[record]]
compound_smiles = "CCOc1ccccc1O[C@@H]1CCCN(c2ncc(C(=O)NCc3ccc(C(=O)O)cc3C)cn2)C1"
recorded_value = "45.2 nM"

[[record]]
compound_smiles = "CCOc1ccccc1O[C@@H]1CCCN(c2ncc(C(=O)NCc3nc(=O)[nH][nH]3)cn2)C1"
recorded_value = "68 nM"


###

TESTED_TARGET: DGAT2 in primary human hepatocytes (Homo sapiens (Human), UniProt Q96PD7)
Sequence (Q96PD7 whole entry): as above
METHOD_SUMMARY: IC50 for DGAT2 inhibitors in human hepatocytes, [14C]-glycerol incorporation into lipids
Type: cell-based
ENDPOINT_NAME: IC50 (nM)

[[record]]
compound = "CCOc1ccccc1O[C@@H]1CCCN(c2ncc(C(=O)NCc3cc(O)no3)cn2)C1 [Example 19.2]"
tested_target = "DGAT2 in primary human hepatocytes (Homo sapiens (Human), UniProt Q96PD7)"
endpoint_name = "IC50"
recorded_value = 341


###

Known log10 of IC50 of a selection of compounds
TESTED_TARGET: hDGAT2 (Homo sapiens (Human))
METHOD_SUMMARY: In vitro DGAT2 assay, hDGAT2 membrane fraction, [14C]decanoyl-CoA scintillation readout
Type: biochemical
TEST_SETTINGS: geometric mean; FLAG-hDGAT2 membrane fraction; 2 h preincubation; read-out: IC50 for inhibition of DGAT2
ENDPOINT_NAME: log10 of IC50 (log10 of the value in nM)

[[record]]
compound = "CCOc1ccccc1O[C@@H]1CCCN(c2ncc(C(=O)N3CC(F)(F)C3)cn2)C1 [Example 20.7]"
recorded_value = 0.90

[[record]]
compound = "CCOc1ccccc1O[C@@H]1CCCN(c2ncc(C(=O)N3CCOCC3)cn2)C1 [Example 19.1]"
recorded_value = 1.35

[[record]]
compound = "CCOc1ccccc1O[C@@H]1CCCN(c2ncc(C(=O)N[C@H]3CCC[C@H]3C(=O)O)cc2F)C1 [Example 5]"
recorded_value = 1.82

[[record]]
compound = "CCOc1ccccc1O[C@@H]1CCCN(c2ncc(C(=O)NCc3ccc(C(=O)O)cc3)cn2)C1 [Example 18.1]"
recorded_value = 2.22

[[record]]
compound = "CCOc1ccccc1O[C@@H]1CCCN(c2ncc(C(=O)NCCC(=O)NC)cn2)C1 [Example 20.4]"
recorded_value = 1.73

[[record]]
compound = "CCOc1ccccc1O[C@@H]1CCCN(c2ncc(C(=O)NCc3ccon3)cn2)C1 [Example 19.3]"
recorded_value = 1.03

[[record]]
compound = "CCOc1ccccc1O[C@@H]1CCCN(c2ncc(C(=O)N(C)C)cn2)C1 [Example 20.3]"
recorded_value = 2.02

[[record]]
compound = "CCOc1ccccc1O[C@@H]1CCCN(c2ncc(C(=O)NCC(=N)N)cn2)C1 [Example 19.5]"
recorded_value = 2.09


###

TESTED_TARGET: DGAT2 in primary human hepatocytes (Homo sapiens (Human), UniProt Q96PD7)
METHOD_SUMMARY: IC50 for DGAT2 inhibitors in human hepatocytes, [14C]-glycerol incorporation into lipids
Format: cell-based
TEST_SETTINGS: average; cryopreserved human hepatocytes; selective DGAT1 inhibitor 3 μM in all wells; 3 hour incubation; read-out: IC50 in primary human hepatocytes
Procedure: For evaluation of the effects of DGAT2 inhibitors in a cell-based setting, cryopreserved human hepatocytes (Lot QOC and NON, Celsis, Chicago, Ill.) were thawed and plated onto type I collagen-coated plates according to the manufacturer's instructions. […] The half maximal inhibitory concentrations (IC50 values) were determined using GraphPad Prism (GraphPad Software, Inc., La Jolla, Calif.). […]
pIC50: −log10 of the molar value.
ENDPOINT_NAME: pIC50

[[record]]
molecule = "CCOc1ccccc1O[C@@H]1CCCN(c2ncc(C(=O)NCc3ccccc3CC(=O)O)cn2)C1 [Example 18.3]"
recorded_value = 6.30

[[record]]
molecule = "CCOc1ccccc1O[C@@H]1CCCN(c2ncc(C(=O)NCc3cccc(CC(=O)O)c3)cn2)C1 [Example 18.2]"
recorded_value = 7.34

[[record]]
molecule = "CCOc1ccccc1O[C@@H]1CCCN(c2ncc(C(=O)N[C@H]3CCC[C@H]3C(=O)O)cc2F)C1 [Example 5]"
recorded_value = 8.08

